Test system: Trypanosoma brucei rhodesiense
Assay: microbe, parasite or virus in culture
Conditions: STIB900, 72 h
Description: Antiprotozoal activity against Trypanosoma brucei rhodesiense STIB900 trypomastigotes incubated for 72 hrs by resazurin dye based fluorimetric analysis
Param label: returns class 1 when IC90 < 60 µM, returns class 0 otherwise, including exact equality.

Lookup: Threshold test, IC90 < 60 µM: O=C(c1cc(C2CC2)no1)N1CCCC(c2cc3ncccc3[nH]2)C1 (configuration not stated)
Found: class 0

Lookup: Threshold test, IC90 < 60 µM: O=C(CCc1nc2ncccc2[nH]1)Nc1ccccc1
Found: class 0

Lookup: Threshold test, IC90 < 60 µM: O=C(c1ccc(F)cc1)N1CCCC(c2cc3ncc(Cl)cc3[nH]2)C1 (configuration not stated)
Found: class 1

Lookup: Threshold test, IC90 < 60 µM: O=C(c1ccccc1)N1CC=C(c2cc3ncccc3[nH]2)CC1
Found: class 0

Lookup: Threshold test, IC90 < 60 µM: COc1ccc(OC)c2[nH]c(C(=O)N3CCCC(c4cc5ncccc5[nH]4)C3)cc12 (configuration not stated)
Found: class 1

Lookup: Threshold test, IC90 < 60 µM: O=C(c1ccccc1)N1C=C(c2cc3ncccc3[nH]2)CCC1
Found: class 0

Lookup: Threshold test, IC90 < 60 µM: CC(C)(C)c1cc(C(=O)N2CCCC(c3cc4ncccc4[nH]3)C2)on1 (configuration not stated)
Found: class 0

Lookup: Threshold test, IC90 < 60 µM: O=C(c1ccc(F)cc1)N1CCCC(c2cc3nc(Cl)ccc3[nH]2)C1 (configuration not stated)
Found: class 1

Lookup: Threshold test, IC90 < 60 µM: COc1cc(C(=O)N2CCCC(c3cc4ncccc4[nH]3)C2)on1 (configuration not stated)
Found: class 0

Lookup: Threshold test, IC90 < 60 µM: O=C(c1cc(C(F)(F)F)no1)N1CCOC(c2cc3ncccc3[nH]2)C1 (configuration not stated)
Found: class 0

Lookup: Threshold test, IC90 < 60 µM: O=C(NCCc1nc2ccccc2[nH]1)c1ccccc1
Found: class 0

Lookup: Threshold test, IC90 < 60 µM: CN(C(=O)c1ccccc1)c1cccc(-c2cc3ncccc3[nH]2)c1
Found: class 1

Lookup: Threshold test, IC90 < 60 µM: O=C(c1ccccc1)N1CCCC(c2cn3nc(Cl)ccc3n2)C1 (configuration not stated)
Found: class 1

Lookup: Threshold test, IC90 < 60 µM: N#Cc1ccc(C(=O)N2CCCC(c3cc4ncccc4[nH]3)C2)cc1 (configuration not stated)
Found: class 0

Lookup: Threshold test, IC90 < 60 µM: O=C(c1ccccc1)N1CCCC(c2nc3ncccc3[nH]2)C1 (configuration not stated)
Found: class 0

Lookup: Threshold test, IC90 < 60 µM: Nc1cc(C2CCCN(C(=O)c3cc(C(F)(F)F)no3)C2)[nH]n1 (configuration not stated)
Found: class 0

---

Test system: Trypanosoma brucei rhodesiense
Assay: microbe, parasite or virus in culture
Conditions: STIB900, 72 h
measurementType: IC90 (µM)
Please state the figure in µM; there is no need to write the unit.

Lookup: Dear colleague, I am looking for the recorded IC90 of the following molecule: CC(C)(C)OC(=O)N1CCCC(c2cn3cccnc3n2)C1 (stereo unspecified)
Found: 64

Lookup: Dear colleague, I am looking for the recorded IC90 of the following molecule: CCN(CCC(=O)Nc1cccnc1)C(=O)c1ccc(F)cc1
Found: 64

Lookup: Dear colleague, I am looking for the recorded IC90 of the following molecule: O=C(c1ccc(F)cc1)N1CCCC(c2cc3ncccc3[nH]2)C1 (stereo unspecified)
Found: 60.7

Lookup: Dear colleague, I am looking for the recorded IC90 of the following molecule: COc1ccc2[nH]c(C3CCCN(C(=O)c4ccc(F)cc4)C3)cc2n1 (stereo unspecified)
Found: 30.6

Lookup: Dear colleague, I am looking for the recorded IC90 of the following molecule: CC(C)(O)c1cc(C(=O)N2CCCC(c3cc4ncccc4[nH]3)C2)on1 (stereo unspecified)
Found: 64

Lookup: Dear colleague, I am looking for the recorded IC90 of the following molecule: O=C(c1cc(C(F)(F)F)no1)N1CCC(c2cc3ncccc3[nH]2)C1 (stereo unspecified)
Found: 64

---

Assay: in vitro
Settings: human, MRC5 SV2 cells
Description: Selectivity index, ratio of IC50 for human MRC5 SV2 cells to IC50 for Trypanosoma brucei rhodesiense STIB900 trypomastigotes
measurementType: selectivity ratio
Enter the number alone.

Lookup: Dear colleague, I am looking for the recorded selectivity ratio of the following molecule: O=C(c1ccccc1)N1CCCC(c2cn3nc(Cl)ccc3n2)C1 (centres undefined)
Found: 8.19

Lookup: Dear colleague, I am looking for the recorded selectivity ratio of the following molecule: COc1cc(OC)c2cc(C(=O)N3CCCC(c4cc5ncccc5[nH]4)C3)[nH]c2c1 (centres undefined)
Found: 2.65

Lookup: Dear colleague, I am looking for the recorded selectivity ratio of the following molecule: CCC(=O)N1CCCC(c2nc3ncc(Cl)cc3[nH]2)C1 (centres undefined)
Found: 1.53

Lookup: Dear colleague, I am looking for the recorded selectivity ratio of the following molecule: O=C(c1cc(C(F)(F)F)no1)N1CCCC(c2cc3nc(NCc4ccccc4)ccc3[nH]2)C1 (centres undefined)
Found: 1.4

Lookup: Dear colleague, I am looking for the recorded selectivity ratio of the following molecule: O=C(c1ccc(F)cc1)N1CCCC(c2cc3nc(Cl)ccc3[nH]2)C1 (centres undefined)
Found: 26

Lookup: Dear colleague, I am looking for the recorded selectivity ratio of the following molecule: CC(C)(C)c1cc(C(=O)N2CCCC(c3cc4ncccc4[nH]3)C2)on1 (centres undefined)
Found: 1.83

Lookup: Dear colleague, I am looking for the recorded selectivity ratio of the following molecule: CN(C(=O)c1ccccc1)c1cccc(-c2cc3ncccc3[nH]2)c1
Found: 2.89

Lookup: Dear colleague, I am looking for the recorded selectivity ratio of the following molecule: COc1cccc2[nH]c(C(=O)N3CCCC(c4cc5ncccc5[nH]4)C3)cc12 (centres undefined)
Found: 5.44

Lookup: Dear colleague, I am looking for the recorded selectivity ratio of the following molecule: O=C(c1ccc(F)cc1)N1CCCC(c2cc3ncccc3[nH]2)C1 (centres undefined)
Found: 1.98

---

I'd appreciate it if you could supply IC50 values for the items below.
Tested on: Trypanosoma brucei rhodesiense
Assay: microbe, parasite or virus in culture
Conditions: STIB900, 72 h
Please state the figure in µM; there is no need to write the unit.

Lookup: Dear colleague, I am looking for the recorded IC50 of the following compound: O=C(c1ccccc1)N1CC=C(c2cc3ccccc3[nH]2)CC1
Found: 64

Lookup: Dear colleague, I am looking for the recorded IC50 of the following compound: O=C(c1cc(C(F)(F)F)no1)N1CCOC(c2cc3ncccc3[nH]2)C1 (stereo not given)
Found: 64

Lookup: Dear colleague, I am looking for the recorded IC50 of the following compound: COc1ccc2cc(C(=O)N3CCCC(c4cc5ncccc5[nH]4)C3)[nH]c2c1 (stereo not given)
Found: 32

---

System: Trypanosoma brucei rhodesiense
Assay: microbe, parasite or virus in culture
Conditions: STIB900, 72 h
measurementType: log10 IC50 (log10 of the value in µM)
In plain terms, each number is the log10 of measured IC50 in µM.

Lookup: What reported log10 IC50 corresponds to O=C(c1cc(C2CC2)no1)N1CCCC(c2cc3ncccc3[nH]2)C1 (centres undefined) on Trypanosoma brucei rhodesiense?
Found: 1.62

Lookup: What reported log10 IC50 corresponds to O=C(c1ccccc1)N1CCC(O)(c2cc3ncccc3[nH]2)CC1 on Trypanosoma brucei rhodesiense?
Found: 1.81

Lookup: What reported log10 IC50 corresponds to Nc1cc(C2CCCN(C(=O)c3cc(C(F)(F)F)no3)C2)[nH]n1 (centres undefined) on Trypanosoma brucei rhodesiense?
Found: 1.81

Lookup: What reported log10 IC50 corresponds to O=C(Cc1ccccc1)N1CCN(c2nc3ccccc3s2)CC1 on Trypanosoma brucei rhodesiense?
Found: 1.75

Lookup: What reported log10 IC50 corresponds to O=C(CCc1nc2ncccc2[nH]1)Nc1ccccc1 on Trypanosoma brucei rhodesiense?
Found: 1.81

Lookup: What reported log10 IC50 corresponds to O=C(c1cc(C(F)(F)F)no1)N1CCCC(c2cc3ncccc3[nH]2)C1 (centres undefined) on Trypanosoma brucei rhodesiense?
Found: 1.61

Lookup: What reported log10 IC50 corresponds to O=C(c1ccccc1)N1CCCC(c2cn3nc(Cl)ccc3n2)C1 (centres undefined) on Trypanosoma brucei rhodesiense?
Found: 0.89

Lookup: What reported log10 IC50 corresponds to O=C(c1cccc(C(F)(F)F)n1)N1CCCC(c2cc3ncccc3[nH]2)C1 (centres undefined) on Trypanosoma brucei rhodesiense?
Found: 1.81

Lookup: What reported log10 IC50 corresponds to O=C(c1cc(C(F)(F)F)no1)N1CCCC(c2cc3ncc(-c4ccccc4)cc3[nH]2)C1 (centres undefined) on Trypanosoma brucei rhodesiense?
Found: 1.81

Lookup: What reported log10 IC50 corresponds to CCN(CCc1nc2ncccc2[nH]1)C(=O)c1ccccc1 on Trypanosoma brucei rhodesiense?
Found: 1.81

Lookup: What reported log10 IC50 corresponds to O=C(c1ccc(C(F)(F)F)nc1)N1CCCC(c2cc3ncccc3[nH]2)C1 (centres undefined) on Trypanosoma brucei rhodesiense?
Found: 1.81

Lookup: What reported log10 IC50 corresponds to CC(C)c1cc(C(=O)N2CCC(O)(c3cc4ncccc4[nH]3)CC2)on1 on Trypanosoma brucei rhodesiense?
Found: 1.81

Lookup: What reported log10 IC50 corresponds to Cn1nccc1C(=O)N1CCCC(c2cc3ncccc3[nH]2)C1 (centres undefined) on Trypanosoma brucei rhodesiense?
Found: 1.81

Lookup: What reported log10 IC50 corresponds to O=C(CCc1nc2cccnc2n1CCO)Nc1ccccc1 on Trypanosoma brucei rhodesiense?
Found: 1.81

Lookup: What reported log10 IC50 corresponds to O=C(c1ccccn1)N1CCCC(c2cc3ncccc3[nH]2)C1 (centres undefined) on Trypanosoma brucei rhodesiense?
Found: 1.81

Lookup: What reported log10 IC50 corresponds to CCCC(=O)N1CCCC(O)(c2cc3ncccc3[nH]2)C1 (centres undefined) on Trypanosoma brucei rhodesiense?
Found: 1.81

Lookup: What reported log10 IC50 corresponds to CC(C)c1cc(C(=O)N2CCCC(O)(c3cc4ncccc4n3S(=O)(=O)c3ccccc3)C2)on1 (centres undefined) on Trypanosoma brucei rhodesiense?
Found: 1.55

Lookup: What reported log10 IC50 corresponds to CC(C)(C)c1cc(C(=O)N2CCCC(c3cc4ncccc4[nH]3)C2)on1 (centres undefined) on Trypanosoma brucei rhodesiense?
Found: 1.54

Lookup: What reported log10 IC50 corresponds to O=C(c1cc(C2CC2)on1)N1CCCC(c2cc3ncccc3[nH]2)C1 (centres undefined) on Trypanosoma brucei rhodesiense?
Found: 1.40

Lookup: What reported log10 IC50 corresponds to OC1(c2cc3ncccc3[nH]2)CCN(Cc2ccccc2)CC1 on Trypanosoma brucei rhodesiense?
Found: 1.81

Lookup: What reported log10 IC50 corresponds to CN(CC(O)c1cc2ncccc2n1S(=O)(=O)c1ccccc1)C(=O)c1ccccc1 (centres undefined) on Trypanosoma brucei rhodesiense?
Found: 1.77

Lookup: What reported log10 IC50 corresponds to O=C(c1cc(C(F)(F)F)no1)N1CCCC(c2cc3nc(NCc4ccccc4)ccc3[nH]2)C1 (centres undefined) on Trypanosoma brucei rhodesiense?
Found: 0.70

Lookup: What reported log10 IC50 corresponds to CC(C)(C)OC(=O)N1CCCC(c2cn3cccnc3n2)C1 (centres undefined) on Trypanosoma brucei rhodesiense?
Found: 1.81
